# Test system: KMS-21-BM
# Procedure summary: CellTiter-Glo proliferation assay (Example 7)
# Format: cell-based
# Condition label: 120 h, 5 days
pIC50: −log10 of the molar value.

Compound	pIC50
COc1ccccc1-c1nccc(COc2ccccc2C[C@@H](Oc2ncnc3sc(-c4ccc(F)cc4)c(-c4ccc(OCCN5CCN(C)CC5)c(Cl)c4C)c23)C(=O)O)n1 [P1]	8.94
